The reported numbers originate from PubChem BioAssay (NCI).

growth for assorted molecules
# System: DU-145 prostate
# assayNotes: NCI-60 one-dose screen, 48 h (100 = growth as untreated, 0 = no growth, -100 = all killed)
# runParameters: 10 µM unless noted
About 83,000 compounds went through this panel and 20% of them were active in at least one assay; those are over-represented in the sample as a whole. The source made the active and inactive calls. The calls were made as follows: active = growth percent below 10; inactive = the rest.

Study these solved cases before continuing.
Nc1c(C(=O)c2ccc(Cl)cc2)sc(Nc2ccccc2)c1-c1nc2ccccc2s1; 25.5% (inactive)
O=C1/C(=C/c2ccc(-c3ccc(Cl)cc3)o2)SC(=S)N1CCc1ccc(O)cc1; 29.1% (inactive)
CCN=c1sc2c(n1NC(=O)c1cc3ccc1CCc1ccc(cc1)CC3)C(=O)c1ccccc1C2=O; -91.4% (active)
O=C(Nc1cccc2c1C(=O)c1cccc(NC(=O)c3ccc(C(=O)Nc4cccc5c4C(=O)c4cccc(NC(=O)c6ccccc6)c4C5=O)cc3)c1C2=O)c1ccccc1; 115% (inactive)
CC/C(=C(/c1ccc(Cl)cc1)c1ccc(OCCN2CCCCCC2)cc1)c1ccccc1; 97.2% (inactive)

What is its growth for DU-145 prostate? Entry: COc1ccc(CNc2c3ccccc3nc3ccccc23)cc1OC
24.7% (inactive)

Thanks! And CCN(CC)CCN1C(=O)c2c(c(C)c3c(oc4cc(OC)ccc43)c2C)C1=O ?
75.1% (inactive)

Thanks! And CNC(=O)c1cc(Oc2ccc3nc(NC(=O)Nc4ccc(F)cc4F)sc3c2)ccn1 ?
65.7% (inactive)

Thanks! And COc1cc2c(cc1OC)CC[N+](CCC[N+](C)(C)C)=C2 ?
108% (inactive)

* * *

growth for assorted compounds
# System: TK-10 renal
# assayNotes: NCI-60 one-dose screen, 48 h (100 = growth as untreated, 0 = no growth, -100 = all killed)
# runParameters: 10 µM unless noted
Compounds without any hit were thinned out: in the full panel of roughly 83,000, 20% have a hit.
Respond numerically; units are % and should not be typed.

Study these solved cases before continuing.
COC(=O)[C@@H](Cc1c[nH]c2ccccc12)NC(=O)[C@H](Cc1ccccc1)NCc1ccncc1; 98.1
O=C1/C(=C/c2ccc(Br)cc2)COc2ccc(O)cc21; 99.1

Quick check: growth of COc1c(O[C@@H]2OC(CO)[C@H](O)[C@H](O)C2O)cc2oc3cc(O)c(CC=C(C)C)c(O)c3c(=O)c2c1CC=C(C)C (stereo not given in full) ?
110

Thanks! And CCCn1cnc2c(c1=N)C(c1ccc(Cl)cc1)c1sc3c(F)cccc3c1O2 (stereo not given) ?
102

Thanks! And COc1cccc(/C=C/C(=O)/C=C(/C=C/c2cccc(OC)c2OC)OB(F)F)c1OC ?
68

* * *

# System: A498 renal
# assayNotes: NCI-60 one-dose screen, 48 h
# runParameters: 10 µM unless noted
About 83,000 compounds went through this panel and 20% of them were active in at least one assay; those are over-represented in the sample as a whole. The source made the active and inactive calls. How the source made its calls: active means growth percent below 10; inactive means the rest.
Pick one: active, inactive

CCCNNC(=O)c1ccc(CNC(=O)/C=C/c2ccccc2)cc1; active
CN1/C(=C/C=C/c2n(Cc3ccc4ccccc4c3)c(Cl)c(Cl)[n+]2Cc2ccc3ccccc3c2)Oc2ccccc21; active
CC(C)=CCC[C@](C)(O)C1CC[C@]2(C)[C@@H]1CC[C@@H]1[C@@]3(C)CC/C(=N\OCCC#N)C(C)(C)[C@@H]3CC[C@]12C (some centres undefined); inactive
COc1cc(/C=C2\C(=O)N(CCOc3cc(O)c4c(=O)cc(-c5ccccc5)oc4c3)c3ccccc32)cc(OC)c1O; inactive
[2H]C([2H])([2H])Oc1c(F)cccc1/C=C/C(=O)/C=C(O)/C=C/c1cccc(F)c1OC([2H])([2H])[2H]; inactive

Short answer needed: outcome of this test for O=C1c2c(c3c4cccnc4[nH]c3c3ccc4ccccc4c23)C(=O)N1O ?
inactive

Thanks! And N/C(=N\c1nc2ccccc2s1)NC(=O)Nc1ccccc1 ?
inactive

Thanks! And Clc1ccc(C2=Nn3c(nnc3-c3cc(Cl)cc(Cl)c3Cl)SC2)cc1 ?
inactive

Thanks! And COc1cc(OCc2cccc(-c3ccc4c(c3)OCCO4)c2C)cc(OC)c1C=O ?
active
